# Test system: Bacillus subtilis ATCC 6051
# ASSAY INFO: ≥ marks a high value that may be exact or a test limit, other limits are often not marked, values filed in µg/mL are converted to µM
Entries and their MIC
QUANTITY MEASURED: MIC

* CC[C@H](C)[C@H](NC(=O)[C@H](C)NC(=O)CNC(=O)[C@H](CCCCN)NC(=O)[C@H](CCC(=O)O)NC(=O)[C@H](CCC(=O)O)NC(=O)[C@H](CC(=O)O)NC(=O)[C@H](CCC(=O)O)NC(=O)[C@H](CC(=O)O)NC(=O)[C@H](CCCN=C(N)N)NC(=O)CNC(=O)[C@H](CCC(N)=O)NC(=O)[C@H](CC(C)C)NC(=O)[C@@H](N)CCCCN)C(=O)N[C@H](C(=O)N[C@@H](CCCCN)C(=O)N[C@H](C(=O)N[C@@H](CCCCN)C(=O)NCC(=O)NCC(=O)N[C@@H](CC(C)C)C(=O)O)C(C)C)C(C)C | ≥ 1000 µM
* CC[C@H](C)[C@H](NC(=O)[C@H](C)NC(=O)CNC(=O)[C@H](CCCCN)NC(=O)[C@H](CCC(=O)O)NC(=O)[C@H](CCC(=O)O)NC(=O)[C@H](CC(=O)O)NC(=O)[C@H](CCC(=O)O)NC(=O)[C@H](CC(N)=O)NC(=O)[C@H](CCCN=C(N)N)NC(=O)CNC(=O)[C@H](CCC(N)=O)NC(=O)[C@H](CC(C)C)NC(=O)[C@@H](N)CCCCN)C(=O)N[C@H](C(=O)N[C@@H](CCCCN)C(=O)N[C@H](C(=O)N[C@@H](CCCCN)C(=O)NCC(=O)NCC(=O)N[C@@H](CC(C)C)C(=O)O)C(C)C)C(C)C | ≥ 1000 µM
* CC[C@H](C)[C@@H]1NC(=O)CNC(=O)[C@H](CCCN=C(N)N)NC(=O)[C@H](Cc2ccc(O)cc2)NC(=O)[C@@H](NC(=O)[C@@H](NC(=O)[C@H](CCCN=C(N)N)NC(=O)[C@H](Cc2ccccc2)NC(=O)[C@H](C)NC(=O)[C@H](Cc2c[nH]c3ccccc23)NC(=O)[C@@H](N)CCCCN)C(C)C)CSSC[C@@H](C(=O)N[C@@H](Cc2ccc(O)cc2)C(=O)N[C@@H](CCCN=C(N)N)C(=O)N[C@@H](CCCN=C(N)N)C(=O)N[C@@H](CO)C(=O)N[C@@H](CCCN=C(N)N)C(=O)O)NC1=O | 0.225 µM
* CC[C@H](C)[C@H](NC(=O)[C@H](CCCCN)NC(=O)[C@@H]1CCCN1C(=O)[C@@H](NC(=O)[C@H](CC(C)C)NC(=O)[C@H](C)NC(=O)[C@H](Cc1ccccc1)NC(=O)[C@H](Cc1ccccc1)NC(=O)CN)[C@@H](C)CC)C(=O)N[C@H](C(=O)N[C@@H](CO)C(=O)O)[C@@H](C)CC | ≥ 100 µM
* CC[C@H](C)[C@H](NC(=O)[C@H](CCCCN)NC(=O)[C@H](Cc1ccccc1)NC(=O)[C@@H](N)Cc1c[nH]c2ccccc12)C(=O)N[C@H](C(=O)N[C@@H](CCCCN)C(=O)N[C@@H](CCCCN)C(=O)O)[C@@H](C)CC | ≥ 1040 µM
* CC(C)C[C@H](NC(=O)[C@H](CC(C)C)NC(=O)[C@@H](N)CCC(=O)O)C(=O)N[C@@H](CO)C(=O)N[C@@H](CCCN=C(N)N)C(=O)N[C@H](C(=O)N[C@@H](CC(=O)O)C(=O)O)C(C)C | ≥ 77 µM
* CC[C@H](C)[C@H](NC(=O)[C@@H](N)CCCN=C(N)N)C(=O)N[C@@H](CCCCN)C(=O)N[C@H](C(=O)N[C@H](C(=O)N[C@H](C(=O)N[C@@H](CO)C(=O)N[C@@H](Cc1ccccc1)C(=O)N[C@@H](CC(=O)O)C(=O)N[C@@H](CC(C)C)C(=O)N1CCC[C@H]1C(=O)N[C@@H](C)C(=O)N[C@@H](CC(C)C)C(=O)N[C@@H](CCCN=C(N)N)C(=O)N[C@@H](Cc1c[nH]c2ccccc12)C(=O)N[C@@H](CC(C)C)C(=O)N[C@@H](CCCCN)C(=O)N[C@@H](CC(C)C)C(=O)O)[C@@H](C)O)C(C)C)[C@@H](C)O | 15.6 µM
